Tested on: NCI-60 cell lines
Format: cell-based, human
QUANTITY KIND: Cell Line with which the peptide (and its tripeptide motif) is associated

{"SUBSTANCE": "GSLGVSL", "RESULT": "H226-Lung"}
{"SUBSTANCE": "LAGSGSH", "RESULT": "Molt-4-Leukemia"}
{"SUBSTANCE": "RGLRSVN", "RESULT": "H226-Lung"}
{"SUBSTANCE": "GGSRNRW", "RESULT": "H226-Lung"}
{"SUBSTANCE": "GAGRTVM", "RESULT": "SR Leukemia"}
{"SUBSTANCE": "VIGSRLS", "RESULT": "EKVX-Lung"}
{"SUBSTANCE": "PVHSAGG", "RESULT": "H460-Lung"}
{"SUBSTANCE": "HSRAVAP", "RESULT": "SR Leukemia"}
{"SUBSTANCE": "EGLVSVV", "RESULT": "Molt-4-Leukemia"}
{"SUBSTANCE": "PVGGVLL", "RESULT": "A549-Lung"}
{"SUBSTANCE": "FDRAVAN", "RESULT": "Hop-62-Lung"}
{"SUBSTANCE": "SSRPGSS", "RESULT": "Hop-62-Lung"}
{"SUBSTANCE": "GLEGSGG", "RESULT": "H23-Lung"}
{"SUBSTANCE": "GDSRRGV", "RESULT": "Hop-62-Lung"}
{"SUBSTANCE": "GGSRLLL", "RESULT": "RPMI-8226-Leukemia"}
{"SUBSTANCE": "AGSIALR", "RESULT": "HL-60-Leukemia"}
{"SUBSTANCE": "SSRMGLV", "RESULT": "SR Leukemia"}
{"SUBSTANCE": "PRAGGRW", "RESULT": "EKVX-Lung"}
{"SUBSTANCE": "RANGVLV", "RESULT": "H23-Lung"}
{"SUBSTANCE": "ERARGYP", "RESULT": "SR Leukemia"}
{"SUBSTANCE": "FLRVGEL", "RESULT": "Hop-62-Lung"}
{"SUBSTANCE": "AGLSGGT", "RESULT": "EKVX-Lung"}
{"SUBSTANCE": "GGSGELG", "RESULT": "H23-Lung"}
{"SUBSTANCE": "GSGILDL", "RESULT": "EKVX-Lung"}
{"SUBSTANCE": "GVRPFPR", "RESULT": "Hop-62-Lung"}
{"SUBSTANCE": "LYGVRYG", "RESULT": "RPMI-8226-Leukemia"}
{"SUBSTANCE": "SEDEGAG", "RESULT": "H322-Lung"}
{"SUBSTANCE": "LYGGVRY", "RESULT": "A549-Lung"}
{"SUBSTANCE": "LRYDLRS", "RESULT": "RPMI-8226-Leukemia"}
{"SUBSTANCE": "GGVAGVS", "RESULT": "A549-Lung"}
{"SUBSTANCE": "ASLRYYV", "RESULT": "SR Leukemia"}
{"SUBSTANCE": "GRRVSLV", "RESULT": "SR Leukemia"}
{"SUBSTANCE": "KSGLRPA", "RESULT": "EKVX-Lung"}
{"SUBSTANCE": "VYYRLSA", "RESULT": "SR Leukemia"}
{"SUBSTANCE": "FGLRSRL", "RESULT": "SR Leukemia"}
{"SUBSTANCE": "FGLRNSR", "RESULT": "HL-60-Leukemia"}
{"SUBSTANCE": "VGLGHWP", "RESULT": "Hop-62-Lung"}
{"SUBSTANCE": "GGLRGVR", "RESULT": "A549-Lung"}
{"SUBSTANCE": "YWFIGLG", "RESULT": "EKVX-Lung"}
{"SUBSTANCE": "WSSTASL", "RESULT": "H460-Lung"}
{"SUBSTANCE": "AVWGGLG", "RESULT": "H226-Lung"}
{"SUBSTANCE": "DVRGRVW", "RESULT": "H460-Lung"}
{"SUBSTANCE": "GGSRAAE", "RESULT": "H322-Lung"}
{"SUBSTANCE": "PRYGVRA", "RESULT": "RPMI-8226-Leukemia"}
{"SUBSTANCE": "WGRGSVA", "RESULT": "Molt-4-Leukemia"}
{"SUBSTANCE": "EGSGVDC", "RESULT": "RPMI-8226-Leukemia"}

---

Test system: NCI-60 cell lines
Format: cell-based, human
QUANTITY KIND: Cell Line (NCI-60 cell line the peptide is associated with)

{"SUBSTANCE": "GGSALFG", "RESULT": "HT-29 Colon"}
{"SUBSTANCE": "YADGAAV", "RESULT": "SF-295 CNS"}
{"SUBSTANCE": "TLGGLRT", "RESULT": "SF-295 CNS"}
{"SUBSTANCE": "SKYNLRS", "RESULT": "HT-29 Colon"}
{"SUBSTANCE": "LAQGRLA", "RESULT": "HT-29 Colon"}
{"SUBSTANCE": "RQKCGGL", "RESULT": "HT-29 Colon"}
{"SUBSTANCE": "SRLSYWQ", "RESULT": "LOX-IMVI Melanoma"}
{"SUBSTANCE": "HFIRGSV", "RESULT": "HT-29 Colon"}
{"SUBSTANCE": "IFGAGLR", "RESULT": "LOX-IMVI Melanoma"}

---

Tested on: NCI-60 cell lines
Assay type: cell-based, human
QUANTITY KIND: Cell Line (NCI-60 cell line the peptide is associated with)

{"SUBSTANCE": "VLRSALQ", "TEST TARGET": "NCI-60 cell lines", "RESULT": "KM-12C Colon"}
{"SUBSTANCE": "LRSVGSW", "TEST TARGET": "NCI-60 cell lines", "RESULT": "HCT-15 Colon"}
{"SUBSTANCE": "GSGHSFA", "TEST TARGET": "NCI-60 cell lines", "RESULT": "KM-12C Colon"}
{"SUBSTANCE": "AGSGFPF", "TEST TARGET": "NCI-60 cell lines", "RESULT": "HT-29 Colon"}
{"SUBSTANCE": "RGLVRVV", "TEST TARGET": "NCI-60 cell lines", "RESULT": "COLO-205-Colon"}
{"SUBSTANCE": "YGESLLR", "TEST TARGET": "NCI-60 cell lines", "RESULT": "SNB-75 CNS"}
{"SUBSTANCE": "ELWASLG", "TEST TARGET": "NCI-60 cell lines", "RESULT": "HT-29 Colon"}
{"SUBSTANCE": "RMGFGLR", "TEST TARGET": "NCI-60 cell lines", "RESULT": "LOX-IMVI Melanoma"}
{"SUBSTANCE": "SVVLAGS", "TEST TARGET": "NCI-60 cell lines", "RESULT": "LOX-IMVI Melanoma"}
{"SUBSTANCE": "SRHGLVR", "TEST TARGET": "NCI-60 cell lines", "RESULT": "HCT-15 Colon"}
{"SUBSTANCE": "GVRGAAR", "TEST TARGET": "NCI-60 cell lines", "RESULT": "HCT-15 Colon"}
{"SUBSTANCE": "GSTLLSR", "TEST TARGET": "NCI-60 cell lines", "RESULT": "LOX-IMVI Melanoma"}
{"SUBSTANCE": "LLRSSLG", "TEST TARGET": "NCI-60 cell lines", "RESULT": "HCT-116 Colon"}
{"SUBSTANCE": "SPTGGRR", "TEST TARGET": "NCI-60 cell lines", "RESULT": "LOX-IMVI Melanoma"}
{"SUBSTANCE": "NAVRGSA", "TEST TARGET": "NCI-60 cell lines", "RESULT": "HCT-116 Colon"}
{"SUBSTANCE": "GGWARAV", "TEST TARGET": "NCI-60 cell lines", "RESULT": "SNB-75 CNS"}
{"SUBSTANCE": "GLVGRRA", "TEST TARGET": "NCI-60 cell lines", "RESULT": "COLO-205-Colon"}
{"SUBSTANCE": "SELRSIR", "TEST TARGET": "NCI-60 cell lines", "RESULT": "COLO-205-Colon"}
{"SUBSTANCE": "VPLRSSA", "TEST TARGET": "NCI-60 cell lines", "RESULT": "HT-29 Colon"}

---

Tested on: NCI-60 cell lines
Format: cell-based, human
QUANTITY KIND: Cell Line with which the peptide (and its tripeptide motif) is associated

{"SUBSTANCE": "AGGQSER", "RESULT": "H226-Lung"}
{"SUBSTANCE": "LLRRAVF", "RESULT": "Hop-62-Lung"}
{"SUBSTANCE": "LVSGYNG", "RESULT": "Hop-92-Lung"}
{"SUBSTANCE": "RVGRLGG", "RESULT": "A549-Lung"}
{"SUBSTANCE": "LSSGLVS", "RESULT": "H460-Lung"}
{"SUBSTANCE": "LLSTSIR", "RESULT": "RPMI-8226-Leukemia"}
{"SUBSTANCE": "LVRSSGL", "RESULT": "Hop-92-Lung"}
{"SUBSTANCE": "HNGRLEV", "RESULT": "Hop-62-Lung"}
{"SUBSTANCE": "GGGSDGV", "RESULT": "CCRF-CEM Leukemia"}
{"SUBSTANCE": "AGIARGG", "RESULT": "Hop-92-Lung"}
{"SUBSTANCE": "REEFAGR", "RESULT": "SR Leukemia"}
{"SUBSTANCE": "GAVVKPI", "RESULT": "A549-Lung"}
{"SUBSTANCE": "GLVRGFP", "RESULT": "SR Leukemia"}
{"SUBSTANCE": "SHRVSDS", "RESULT": "K-562-Leukemia"}
{"SUBSTANCE": "PLAVSMV", "RESULT": "SR Leukemia"}
{"SUBSTANCE": "AGPSAWL", "RESULT": "Hop-92-Lung"}
{"SUBSTANCE": "FGLGSSR", "RESULT": "Hop-62-Lung"}
{"SUBSTANCE": "RASCALT", "RESULT": "HL-60-Leukemia"}
{"SUBSTANCE": "MSAFGRL", "RESULT": "EKVX-Lung"}
{"SUBSTANCE": "STEGGGL", "RESULT": "Molt-4-Leukemia"}
{"SUBSTANCE": "RTGSSDL", "RESULT": "Hop-92-Lung"}
{"SUBSTANCE": "RRHGLLS", "RESULT": "K-562-Leukemia"}
{"SUBSTANCE": "RGSHLVP", "RESULT": "CCRF-CEM Leukemia"}
{"SUBSTANCE": "PRGGRVA", "RESULT": "Hop-92-Lung"}
{"SUBSTANCE": "EFAVAGR", "RESULT": "SR Leukemia"}
{"SUBSTANCE": "GLVRGTA", "RESULT": "Molt-4-Leukemia"}
{"SUBSTANCE": "SGVSRGQ", "RESULT": "Hop-92-Lung"}
{"SUBSTANCE": "FAGRVPS", "RESULT": "RPMI-8226-Leukemia"}
{"SUBSTANCE": "LEAGSQL", "RESULT": "H226-Lung"}
{"SUBSTANCE": "RSSGLGF", "RESULT": "Hop-62-Lung"}
{"SUBSTANCE": "ELHPRGV", "RESULT": "K-562-Leukemia"}
{"SUBSTANCE": "FFPAGGP", "RESULT": "EKVX-Lung"}
{"SUBSTANCE": "NRSSGRR", "RESULT": "SR Leukemia"}
{"SUBSTANCE": "LLSFLGR", "RESULT": "Molt-4-Leukemia"}
{"SUBSTANCE": "RGRLEVP", "RESULT": "Molt-4-Leukemia"}
{"SUBSTANCE": "TDLAGLH", "RESULT": "RPMI-8226-Leukemia"}
{"SUBSTANCE": "SGGLHEG", "RESULT": "SR Leukemia"}
{"SUBSTANCE": "WGSGRGN", "RESULT": "HL-60-Leukemia"}
{"SUBSTANCE": "FAWGGRG", "RESULT": "K-562-Leukemia"}
{"SUBSTANCE": "AGGGPPA", "RESULT": "EKVX-Lung"}
{"SUBSTANCE": "EAVSRGS", "RESULT": "K-562-Leukemia"}
{"SUBSTANCE": "AGRTGVG", "RESULT": "SR Leukemia"}
{"SUBSTANCE": "AVDGLRL", "RESULT": "SR Leukemia"}
{"SUBSTANCE": "GGLSECV", "RESULT": "H226-Lung"}
{"SUBSTANCE": "LRGGLVS", "RESULT": "EKVX-Lung"}
{"SUBSTANCE": "RAVEMGT", "RESULT": "H460-Lung"}
